assay: Cmax in rat at 10 mg/kg, po; type: ADME, organism-based; parameters: dose 10 mg/kg, route oral; settings: in vivo

chemical_string | u | Cmax
CN(C(=O)Cn1c(=O)oc2ccc(-c3cccnc3)cc21)c1ccccc1.Cl | ng/mL | 50.4

###

test: Tmax in rat at 10 mg/kg, po; type: ADME, organism-based; design: dose 10 mg/kg, route oral; details: in vivo

chemical_string | Tmax
CN(C(=O)Cn1c(=O)oc2ccc(-c3cccnc3)cc21)c1ccccc1.Cl | 1 h

###

assay: AUC in rat at 10 mg/kg, po; format: ADME, organism-based; design: dose 10 mg/kg, route oral; conditions: plasma

chemical_string | AUC, ng·h/mL
CN(C(=O)Cn1c(=O)oc2ccc(-c3cccnc3)cc21)c1ccccc1.Cl | 8370

###

test: Ratio of AUC in brain to AUC in plasma of rat at 10 mg/kg, po; type: ADME, organism-based; design: dose 10 mg/kg, route oral; details: brain and plasma

chemical_string | Kp
CN(C(=O)Cn1c(=O)oc2ccc(-c3cccnc3)cc21)c1ccccc1.Cl | 0.63

###

assay: Aqueous solubility of the compound at pH 2.5; assay type: physicochemical; conditions: aqueous solution

chemical_string | solubility (µg/mL)
CN(C(=O)Cn1c(=O)oc2ccc(-c3cccnc3)cc21)c1ccccc1 | 440

###

// solubility lookup, one value per entry
experiment: Aqueous solubility of the compound at pH 7.4; type: physicochemical; settings: aqueous solution
parameter_measured: solubility (µg/mL)

chemical_string | result_modifier | assay_result
CN(C(=O)Cn1c(=O)oc2ccc(-c3ccccc3)cc21)c1ccccc1 | < | 1
CN(C(=O)Cn1c(=O)oc2ccc(-c3ccccc3)cc21)c1cccnc1 | = | 45
